Tested on: MDA-N
test details: NCI tumour cell line growth inhibition, 48 h
Quick list: TGI per entry.

Notebook entry, MDA-N assay: TGI of Cc1ccnc2[nH]c(-c3ccc4ccccc4c3)cc(=O)c12 = ?
0.448 µM

Notebook entry, MDA-N assay: TGI of Cc1c(C)c2c(c(N)c1C#N)C(=O)N(NC(=O)c1ccccc1)C2=O = ?
> 100 µM

Notebook entry, MDA-N assay: TGI of CN(CCSCCN(C)C(=O)OC(C)(C)C)C(=O)OC(C)(C)C = ?
> 100 µM

====

Tested on: SNB-19 CNS
test details: NCI tumour cell line growth inhibition, 48 h; in the data active = GI50 below about 0.43 µM; inactive = the rest
Hi! Could you answer with just one of these? active, inactive

compound=NC(=S)N/N=C/C(=O)O classification=inactive
compound="Cc1ccc(SC2c3ccc(C)cc3Oc3nc(N)c(C#N)c(N)c32)cc1 (stereo not given)" classification=inactive
compound=CC/C=C\C[C@H](O)C/C=C1/C(=O)C(Cl)=C[C@@H]1C/C=C\CCCC(=O)OC classification=inactive
compound=N#Cc1c(N)nc(N2CCOCC2)c(C#N)c1-c1ccncc1 classification=inactive
compound=COc1cccc(CC(C)=C(c2ccc(OCCN(C)C)cc2)c2ccc(OCCN(C)C)cc2)c1 classification=inactive
compound=COc1ccccc1/C=N\N/C(N)=N\N=C\c1ccccc1OC classification=active

How was CN1CCN(C2CCN(C(=O)Nc3cc(Oc4ccc(NC(=O)C5(C(=O)Nc6ccc(F)cc6)CC5)c(F)c4)ccn3)CC2)CC1 classified in this test?
active

How was Nc1ccc([N+](=O)[O-])cc1N=C/C=C/c1ccccc1 classified in this test?
inactive

How was COc1ccc(OC)c2c1[nH]c(=O)c1c3ccccc3cn21 classified in this test?
inactive

How was COC(=O)COc1ccccc1/C=C1\N=C(c2ccccc2)N(c2cc(C(F)(F)F)ccc2Cl)C1=O classified in this test?
inactive

====

Test system: MDA-N
test details: NCI tumour cell line growth inhibition, 48 h
quantity name: TGI

molecule=[N-]=[N+]=Nc1c([N+](=O)[O-])c(=O)n(-c2ccccc2)c2ccccc12 quantity_name=TGI endpoint_result="83.2 µM"
molecule=Nc1ccc2c(c1)C(=O)N1CCC[C@H]1C(=O)N2 quantity_name=TGI endpoint_result="> 100 µM"
molecule="CC1CC(OP(=O)(OCc2ccccc2)OCc2ccccc2)[C@@H](OCc2ccccc2)C(OCc2ccccc2)C1OCc1ccccc1 (some centres not stated)" quantity_name=TGI endpoint_result="> 100 µM"
molecule=O=C1COc2cccnc2N1CCCCO quantity_name=TGI endpoint_result="> 100 µM"
molecule=CO/N=C(\C)c1ccc(Nc2nc3ccccc3c3occc23)cc1 quantity_name=TGI endpoint_result="28.7 µM"
molecule=O=C(Nc1ccc2ncccc2c1)Nc1ccc2ncccc2c1 quantity_name=TGI endpoint_result="> 100 µM"
molecule=COc1cc(OC)cc(Oc2nc3ccccc3nc2C(F)(F)F)c1 quantity_name=TGI endpoint_result="> 100 µM"
molecule="CC1(C)C(C#N)C1C1=C(N2CCOCC2)[C@]2(C)C(OC(=O)c3ccccc3)CC[C@@H]2C1 (some centres not stated)" quantity_name=TGI endpoint_result="> 100 µM"
molecule=BrC1=C(Br)C2(SCCS2)[C@H]2C[C@@H]1c1ccccc12 quantity_name=TGI endpoint_result="> 26.2 µM"
molecule=COC(=O)c1ccc(/C=C/c2cc(O)ccc2O)cc1 quantity_name=TGI endpoint_result="> 46.7 µM"

Look up TGI: NS(=O)(=O)c1ccc(/C=C/c2ccc(O)c(O)c2)cc1
65.7 µM

Look up TGI: C[C@H]1[C@H]2[C@H]3CC[C@@H]4[C@@]5(C)CC[C@H](O)C(C)(C)[C@@H]5CC[C@@]4(C)[C@]3(C)C[C@H](O)[C@@]2(C)C[C@H]2O[C@]21C
46.5 µM

Look up TGI: C(=NCCN1CCOCC1)=NC1CCCCC1
> 100 µM

Look up TGI: O=c1oc2ccc3ccccc3c2cc1-c1nc2ccccc2s1
> 100 µM

Look up TGI: N=C(N)C1CN(CCc2c[nH]c3ccccc23)C(=O)NC1=O (configuration not stated)
> 100 µM

Look up TGI: Cc1ccc2c(c1)C(=S)N1CSCC1c1nncn1-2 (configuration not stated)
> 100 µM

Look up TGI: COc1cccc(C2c3cc4c(cc3OC(N3CCCCC3)C2C)OCO4)c1O (configuration not stated)
7.71 µM

====

Quick list: TGI per entry.
Test system: SN12C renal
test details: NCI tumour cell line growth inhibition, 48 h

molecule="[N-]=[N+]=NC1(Cc2ccccc2)C(=O)c2cccc3c2N(CCC3)C1=O (stereo unspecified)" endpoint_result="> 100 µM"
molecule=O=C(/C=C/c1ccccc1)Oc1cccc(O)c1 endpoint_result="> 100 µM"
molecule=NC(=S)N/N=C/C(=O)O endpoint_result="> 100 µM"

Look up TGI: CCCCC#CC1=C(Br)C(=O)OC1
4.27 µM

Look up TGI: N.N.N.N.O=C([O-])CCl.O=C([O-])CCl.[Co+3].[O-][Cl+3]([O-])([O-])[O-]
> 100 µM

Look up TGI: COc1cc(OCc2cccc(-c3ccc(C(O)c4nccs4)cc3)c2C)cc(OC)c1C=O (stereo unspecified)
7.07 µM

====

Tested on: HOP-62 NSCLC
test details: NCI tumour cell line growth inhibition, 48 h
Quick list: TGI per entry.

Look up TGI: CC1(C)C(C#N)C1C1=C(N2CCOCC2)[C@]2(C)C(OC(=O)c3ccccc3)CC[C@@H]2C1 (some centres not stated)
> 100 µM

Look up TGI: COc1cc(C2C3C=CC=C4CC=CC(=C43)C3CCC(=O)N32)cc(OC)c1OC (configuration not stated)
> 100 µM

Look up TGI: COC(=O)c1c(O)ccc2c1c1c(n2Cc2cc(OC)cc(OC)c2)C(=O)c2ccccc2C1
> 100 µM

Look up TGI: CC(=O)CCn1ncc(Cl)c(Cl)c1=O
35.4 µM

Look up TGI: COc1cccc(C2CC(C)(O)Oc3cc4c(cc32)OCO4)c1O (configuration not stated)
79.7 µM

Look up TGI: O=c1sc2ccccc2n1CC1CS1 (configuration not stated)
> 100 µM

Look up TGI: CCOC(=O)C1=CN(C)C=C(C(=O)OCC)C1c1cc(Br)c(OCC)c(OC)c1
> 100 µM

Look up TGI: CSc1nc(=O)n(CCC#N)nc1SC
> 100 µM

Look up TGI: C(=NCCN1CCOCC1)=NC1CCCCC1
> 100 µM

Look up TGI: CC1(C)/C(=N\NC(N)=O)C2CCC1C2 (configuration not stated)
> 100 µM

Look up TGI: Cn1cc(C2=C(c3ccc(N)cc3)C(=O)NC2=O)c2ccccc21
> 25 µM

Look up TGI: CCOC(=O)C(C#N)C1=CC(=O)C(=O)c2ccc(OC)cc21 (configuration not stated)
51.7 µM

====

Quick list: TGI per entry.
Test system: A498 renal
test details: NCI tumour cell line growth inhibition, 48 h

Here are 4 molecules together with their reported answers.
molecule=COC(=O)c1ccc(/C=C/c2cc(O)ccc2O)cc1 quantity_name=TGI endpoint_result="33 µM"
molecule="Cc1ccc2c(c1)C(=S)N1CSCC1c1nncn1-2 (stereo unspecified)" quantity_name=TGI endpoint_result="> 100 µM"
molecule=Nc1ccc2c(c1)C(=O)N1CCC[C@H]1C(=O)N2 quantity_name=TGI endpoint_result="> 100 µM"
molecule=C[C@H]1[C@H]2[C@H]3CC[C@@H]4[C@@]5(C)CC[C@H](O)C(C)(C)[C@@H]5CC[C@@]4(C)[C@]3(C)C[C@H](O)[C@@]2(C)C[C@H]2O[C@]21C quantity_name=TGI endpoint_result="38.7 µM"

Look up TGI: Cn1c(=O)c2c(ncn2CCNC(CO)C(O)c2ccc([N+](=O)[O-])cc2)n(C)c1=O (stereo unspecified)
> 100 µM

Look up TGI: Cc1ccc(-n2cnc(C(=N)C#N)c2N)cc1
> 100 µM

====

Test system: A549 NSCLC
test details: NCI tumour cell line growth inhibition, 48 h
quantity name: TGI (µM)
Write it as a number; the unit µM goes unstated.

compound=NC(=O)/C=C/C(=O)c1c(Cl)cccc1Cl readout_units=µM endpoint_result=3.39

Notebook entry, A549 NSCLC assay: TGI of O=C1Sc2cc3ccccc3cc2C(=O)Sc2ccc(Br)cc21 = ?
30.9

Notebook entry, A549 NSCLC assay: TGI of CN(C)CCNC(=O)c1cccc2ccc(-c3ccc(O)cc3)nc12 = ?
7.17

Notebook entry, A549 NSCLC assay: TGI of CCN(CC)CCC(CNc1ccnc2cc(Cl)ccc12)c1ccc(Cl)cc1 (stereo unspecified) = ?
3.96

Notebook entry, A549 NSCLC assay: TGI of CC(C)C1=CC23CCC4C(C)(C(=O)O)CCCC4(C)C2CC1C1C(=O)N(c2ccc(Cc4ccc(N5C(=O)C6C7CC8C9(C)CCCC(C)(C(=O)O)C9CCC8(C=C7C(C)C)C6C5=O)cc4)cc2)C(=O)C13 (stereo unspecified) = ?
15.7

Notebook entry, A549 NSCLC assay: TGI of COc1ccc(Sc2[nH]c(C(C)=O)c3ccccc23)cc1 = ?
51.3

Notebook entry, A549 NSCLC assay: TGI of C[n+]1c2ccc(Cl)cc2nc2cc(-c3ccccc3)ccc21 = ?
47.7

Notebook entry, A549 NSCLC assay: TGI of COc1ccc(OC)c2c1[nH]c(=O)c1c3ccccc3cn21 = ?
2.37

Notebook entry, A549 NSCLC assay: TGI of S=C(Nc1ccc(Cl)cc1)Nc1ccc(-c2nc3ccccc3s2)cc1 = ?
32.2

Notebook entry, A549 NSCLC assay: TGI of C#CCOc1cccc(-c2ncc3cc(NC(=O)CCl)ccc3n2)c1 = ?
4.43

Notebook entry, A549 NSCLC assay: TGI of CCN1CCN(C(=O)[C@@]2(C)CC[C@]3(C)CC[C@]4(C)C(=CC(=O)[C@@H]5[C@@]6(C)CC[C@H](OC7C[C@@H](O)[C@@H](O)C(C)O7)C(C)(C)[C@@H]6CC[C@]54C)[C@@H]3C2)CC1 (stereo partly specified) = ?
8.94
